test.target: T1, human PD-L1 expressed on mammalian cells (human, UniProt Q9NZQ7 19-290)
T1 construct: whole, on cells; also called PDL1-CHOK1 cells; PDL1-Raji cells
T1 sequence (Q9NZQ7 19-290): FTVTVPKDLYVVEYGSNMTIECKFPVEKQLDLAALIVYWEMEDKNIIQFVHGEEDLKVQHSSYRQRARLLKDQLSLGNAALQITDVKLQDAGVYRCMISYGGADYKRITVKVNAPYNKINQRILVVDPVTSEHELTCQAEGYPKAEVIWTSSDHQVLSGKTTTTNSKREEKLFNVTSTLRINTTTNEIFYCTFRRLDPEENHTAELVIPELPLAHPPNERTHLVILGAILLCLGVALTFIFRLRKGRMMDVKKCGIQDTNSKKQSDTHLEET
test.details: flow cytometry (MFI) on PDL1-CHOK1 cells; EC50 table has no unit, x axis Antibodies(nM)
A collection of binders and their measured pEC50
Notebook: values listed as pEC50 are -log10 of the concentration (mol/L).

Q) What pEC50 value was documented for this binder, Hu1210-2 (antibody, V domains shown, Hu1210 VH.1a x Vk.1; human gamma 1 / kappa constant domains) VH: EVQLVESGGGLVKPGGSLRLSCAASGFTFSSYDMSWVRQAPGKGLEWVATISDGGGYIYYSDSVKGRFTISRDNAKNSLYLQMNSLRAEDTAVYYCAREFGKRYALDYWGQGTTVTVSS VL: DIQMTQSPSSLSASVGDRVTITCKASQDVTPAVAWYQQKPGKAPKLLIYSTSSRYTGVPSRFSGSGSGTDFTFTISSLQPEDIATYYCQQHYTTPLTFGQGTKLEIK ?
A) 8.84

Q) What pEC50 value was documented for this binder, Hu1210-1 (antibody, V domains shown, Hu1210 VH.1 x Vk.1) VH: EVQLVESGGGLVKPGGSLRLSCAASGFTFSSYDMSWVRQAPGKGLEWVSTISDGGGYIYYSDSVKGRFTISRDNAKNSLYLQMNSLRAEDTAVYYCAREFGKRYALDYWGQGTTVTVSS VL: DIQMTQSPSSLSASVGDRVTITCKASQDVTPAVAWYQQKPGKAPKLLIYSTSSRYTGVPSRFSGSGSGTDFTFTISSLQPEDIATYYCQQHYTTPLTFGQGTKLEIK ?
A) 8.64

Q) What pEC50 value was documented for this binder, Hu1210-8 (antibody, V domains shown, Hu1210 VH.1a x Vk.1a; human gamma 1 / kappa constant domains) VH: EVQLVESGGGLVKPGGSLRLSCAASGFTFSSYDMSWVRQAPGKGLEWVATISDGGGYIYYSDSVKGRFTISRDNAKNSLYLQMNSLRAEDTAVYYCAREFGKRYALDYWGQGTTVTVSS VL: DIQMTQSPSSLSASVGDRVTITCKASQDVTPAVAWYQQKPGKSPKLLIYSTSSRYTGVPSRFSGSGSGTDFTFTISSLQPEDIATYYCQQHYTTPLTFGQGTKLEIK ?
A) 8.91

Q) What pEC50 value was documented for this binder, Hu1210-4 (antibody, V domains shown, Hu1210 VH.2 x Vk.1; human gamma 1 / kappa constant domains) VH: EVQLVESGGGLVKPGGSLRLSCAASGFTFSSYDMSWIRQAPGKGLEWVSTISDGGGYIYYSDSVKGRFTISRDNAKNSLYLQMNSLRAEDTAVYYCAREFGKRYALDYWGQGTTVTVSS VL: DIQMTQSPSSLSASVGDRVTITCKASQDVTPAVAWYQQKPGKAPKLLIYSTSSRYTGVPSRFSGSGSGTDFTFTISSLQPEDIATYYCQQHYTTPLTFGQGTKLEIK ?
A) 8.67
